Answer each item with its documented IC50.
Tested on: S. Typhi PhoP-promoter GFP reporter, fluorescence, 4 h
ASSAY_DETAILS: PhoP regulon inhibitor project modified counter assay, GFP fluorescence readout, dose response (AID 1985)

May I ask what IC50 has been recorded for O=S(=O)(Nc1ncccn1)c1ccc(NC(=S)Nc2cccc(Cl)c2)cc1 ? 95.3 µM

What about Cc1cc(N=Nc2ccc(C)c(N=Nc3cc(C)c(N)cc3N)c2)c(N)cc1N ? 108 µM

What about Nc1ncncc1-c1ccc(Cl)cc1 ? 131 µM

What about CC12CN3CC(C)(CN(C1)C3c1ccc(Br)cc1O)C2 (stereo not drawn) ? 133 µM

What about N/C(=N\OS(=O)(=O)c1ccccc1)c1cccnc1 ? 9.86 µM

What about Nc1nc2ccccc2n1Cc1ccc(Cl)c(Cl)c1 ? 54.6 µM

What about NC1CCN(c2c(F)cc3c(=O)c(C(=O)O)cn(C4CC4)c3c2Cl)C1 (stereo not drawn) ? < 0.23 µM

What about CCOc1cccc(CNCCc2c(C)[nH]c3ccc(OC(F)(F)F)cc23)c1O ? 76.2 µM

What about CCC(C)NC(=O)c1cn(CC)c2cc(N3CCN(C)CC3)c(F)cc2c1=O (stereo not drawn) ? 38.4 µM

What about O=c1c2ccccc2[nH]c2ccccc12 ? 27.2 µM

What about CN1CCN(C(c2ccc(Cl)cc2)c2cc(Cl)c3cccnc3c2O)CC1 (stereo not drawn) ? 31.8 µM

What about CCN(CC)c1ccc(/C=N/NC(=O)c2ccc3nc[nH]c3c2)c(O)c1 ? 46.6 µM

What about Cc1ccccc1C(=O)N/N=C/c1ccc([N+](=O)[O-])s1 ? 29 µM

What about Cc1ccc(NC(=O)C(=O)NNC(=O)c2cccs2)cc1 ? 13.2 µM

What about CCCCCOc1ccc(C)cc1CN(CCCl)CCCl ? 138 µM

What about O=c1ccnc(Sc2ncccc2[N+](=O)[O-])[nH]1 ? 102 µM

What about C/C(=N\NC(=O)c1ccc(CN2CCc3ccccc3C2)cc1)c1ccccc1O ? 42 µM

What about C=CC1=C(C(=O)O)N2C(=O)[C@@H](NC(=O)/C(=N\O)c3csc(N)n3)[C@H]2SC1 (stereo in doubt) ? 34.6 µM

What about N=c1c2c(n(Cc3ccc(Cl)c(Cl)c3)c3c1CCC3)CCCC2 ? 80.1 µM

What about O=C(CC(=O)c1cc(Cl)ccc1O)c1ccccc1 ? 128 µM

What about CCc1ccc(CNCc2ccc(OCC(O)CN(C)Cc3ccccc3)cc2)nc1 (stereo not drawn) ? 146 µM

What about CC1=NN(c2nc3ccccc3[nH]2)C(=O)C1Cc1ccccc1 (stereo not drawn) ? 36.5 µM

What about O=C(NNC(=S)NC(=O)c1ccccc1)c1ccc(O)cc1 ? 71.1 µM

What about Cc1ccc(C[n+]2c(-c3ccc(C)cc3)cc(-c3ccc(C)cc3)cc2-c2ccc(C)cc2)cc1 ? 15.6 µM

What about O=c1[nH]cc(F)c(=O)[nH]1 ? 0.378 µM

What about CN(C)c1ccc(O)c2c1CC1CC3C(N(C)C)C(=O)C(C(N)=O)=C(O)[C@@]3(O)C(=O)C1=C2O (stereo partly drawn) ? 3.21 µM

What about O=C(N/N=C/c1sc2ccccc2c1O)c1cccc2ccccc12 ? 26.7 µM

What about CS(=O)(=O)c1ccc([C@@H](O)[C@@H](CO)NC(=O)C(Cl)Cl)cc1 ? 19.7 µM

What about O=C(Nc1cccc(C2=NCCN2)c1)Nc1cccc(C2=NCCN2)c1 ? 36.2 µM

What about O=C(N/N=C/c1ccc(O)c(O)c1)C1c2ccccc2Oc2ccccc21 ? 106 µM

What about N/C(=N\OS(=O)(=O)c1ccc(Cl)cc1)c1cccnc1 ? 91.3 µM

What about O=C(N/N=C/c1c[nH]c2ccccc12)c1cc2ccccc2o1 ? 33.5 µM

What about CCCOc1ccc(S(=O)(=O)n2cc(F)c(=O)[nH]c2=O)cc1 ? 42.2 µM

What about N/C(=N\OS(=O)(=O)c1ccc2ccccc2c1)c1cccnc1 ? 14.2 µM

What about C#CCOCCOCCOCCNc1nc(N2CCN(C(=O)CCCCCCCCCCNC(=O)[C@H](CCCCN)n3cc(CCO)nn3)CC2)nc(N2CCN(C(=O)CCCCCCCCCCNC(=O)[C@H](CCCCN)n3cc(C[C@@H](C)CC)nn3)CC2)n1 ? 38 µM

What about O=c1c2ccccc2nc(N/N=C/c2c(O)ccc3ccccc23)n1O ? 23 µM

What about CCn1cc(C(=O)O)c(=O)c2cc(F)c(N3CCN(C(=S)NC(=O)c4ccc(Br)cc4)CC3)cc21 ? 31.2 µM

What about O=C(N/N=C/c1ccc(O)cc1O)C(=O)N/N=C/c1ccc(O)cc1O ? 108 µM

What about Oc1c(Br)cc(Br)cc1C=NCc1ccccc1 ? 49.7 µM

What about O=C(CNC(=O)c1ccccc1)N/N=C/c1ccc([N+](=O)[O-])s1 ? 19.5 µM

What about CCCCCC(CC(=O)NO)C(=O)NC(C(=O)N1CCCC1CO)C(C)C (stereo not drawn) ? 13.7 µM

What about O=Nc1c(O)c2ccccc2c2ccccc12 ? 24.6 µM

What about CC/C(=N\Nc1ccnc2cc(Cl)ccc12)c1ccc(O)cc1 ? 148 µM

---

Test system: S. Typhi PhoP-promoter GFP reporter, fluorescence, 4 h
ASSAY_DETAILS: PhoP regulon inhibitor project modified counter assay, GFP fluorescence readout, dose response (AID 1985)
ENDPOINT_NAME: pIC50
To interpret pIC50, take it as minus log10 of a concentration measured in moles per litre.

Under S. Typhi PhoP-promoter GFP reporter, fluorescence, 4 h: pIC50 value of CCN1/C(=C/C=C/C=C/c2sc3ccccc3[n+]2CC)Sc2ccccc21 ? 4.51

What about COc1cc2c(cc1O)[C@H](Cc1ccc(Oc3cc(C[C@@H]4NCCc5cc(OC)c(O)cc54)ccc3O)cc1)NCC2 ? 4.24

What about Fc1ccccc1CCNCc1ccccc1 ? 4.34

What about C#CCOCCOCCOCCNc1nc(N2CCN(C(=O)[C@H](CCCCN)n3cc([C@@H](N)CC(C)C)nn3)CC2)nc(N2CCN(C(=O)[C@H](Cc3cc4ccccc4[nH]3)n3cc([C@@H](N)Cc4ccc(O)cc4)nn3)CC2)n1 ? 4.26

What about Clc1cccc(CN2CCc3c([nH]c4ccccc34)C2)c1Cl ? 3.98

What about CN(C)CCCNc1c2ccccc2nc2ccccc12 ? 4.19

What about COc1ccc(OCC(O)CNc2ccc(Br)cc2)cc1 (centres undefined) ? 5.45

What about O=C(CSC1=NC(=O)C(c2ccccc2)C(=O)N1)Nc1cccc(Cl)c1 (centres undefined) ? 4.69

What about O=C(Nc1c(Cl)ccc2nsnc12)c1ccc([N+](=O)[O-])o1 ? 4.25

What about Cc1ccc(-c2c[n+](CC(=O)Nc3nc(-c4ccccc4)cs3)c3n2CCC3)cc1 ? 4.04

What about Cc1cccc(C(=O)NCCC(=O)Nc2ccc(F)c([N+](=O)[O-])c2)c1 ? 3.84

What about CNCCCC1Sc2ccccc2Oc2ccccc21 (centres undefined) ? 3.84

What about CCC(C)(C)c1ccc(OCCCC[n+]2ccccc2)c(C(C)(C)CC)c1 ? 4.17

What about Cc1ccc(CC(=O)Nc2ncc([N+](=O)[O-])s2)cc1 ? 4.02

What about CCCC(=O)NC(c1ccco1)c1cc([N+](=O)[O-])c2cccnc2c1O (centres undefined) ? 5.06

What about O=Nc1ccc(O)c2ncccc12 ? 4.61

What about CCCCCCC[N+](CC)(CC)CCCCc1ccc(Cl)cc1 ? 4.10

What about O=C(Nc1ccncc1)Nc1ccc(Cl)cc1 ? 4.39

What about CCN1CCN(CCNC(=O)c2ccc3c(c2)N(Cc2ccc(F)cc2)C(=O)/C(=C/c2ccccc2)S3)CC1 ? 3.90

What about Nc1c2ccccc2nc2ccccc12 ? 4.32

What about CN(C)CCCn1c(SCC(=O)N2c3ccccc3Sc3ccccc32)nc2ccccc2c1=O ? 3.84

What about O=C(Nc1ccc(Cc2ccncc2)cc1)c1ccc([N+](=O)[O-])o1 ? 4.40

What about O=C(N/N=C/c1ccccn1)c1cccs1 ? 4.37

What about Nc1ncn([C@@H]2O[C@H](CO)[C@@H](O)[C@H]2O)c(=O)n1 ? 4.95

What about CCCCOc1ccc(CSC(=N)N)cc1Cl ? 4.50

What about Cc1ccc(C(=O)N/C(=C\c2ccc(-c3ccc(Br)cc3)o2)C(=O)NCCCN(C)C)cc1 ? 4.18

What about C[C@H]1c2cccc(O)c2C(O)=C2C(=O)[C@]3(O)C(O)=C(C(N)=O)C(=O)[C@@H](N(C)C)[C@@H]3[C@@H](O)[C@@H]21 ? 5.71

What about NC(=O)SCC(=O)Nc1ccc(Cl)c(Cl)c1 ? 4.28

What about OC1CNCc2cc3c(cc21)OCCO3 (centres undefined) ? 4.09

What about CCOC(=O)c1c(-c2ccc(-c3ccccc3)cc2)csc1NC(=O)CNCCN(C)C ? 4.09

What about Cc1[nH]c2ccc(OC(F)(F)F)cc2c1CCNCc1ccc(Cl)cc1 ? 4.44

What about COc1ccc(NC(=O)c2cc(Br)c(Br)s2)cn1 ? 4.63

What about CC(NCc1ccc(Cl)c(Cl)c1)C(O)c1ccccc1 (centres undefined) ? 4.08

What about O=C(OCC(=O)N1CCOCC1)c1ccc[nH]c1=O ? 4.97

What about O=C(/C=C/c1ccccc1)c1ccc(NC2=NCCCS2)cc1 ? 3.93

What about Cc1ccc(OCc2nnc(NC(=O)c3cccnc3)s2)cc1 ? 4.86

What about O=C1c2cccc3cccc(c23)C(=O)C1(O)O ? 4.54

What about CCCCCCCC(=O)N/N=C/c1ccc([N+](=O)[O-])o1 ? 4.52

What about O=[N+]([O-])c1cc(CN2CCN(c3cccc(C(F)(F)F)c3)CC2)c2cccnc2c1O ? 4.46

What about CN(C)c1ccc(/C=C/c2ccc3ccccc3[n+]2C)cc1 ? 4.71

What about O=C(NC(=S)NNC(=O)c1ccco1)c1ccc(Br)cc1 ? 4.16

What about O=C1C(=O)c2ccccc2-c2ccccc21 ? 4.72

What about FC(F)Oc1ccc(NC(=S)NCc2nc3ccccc3[nH]2)cc1 ? 4.47

What about O=C(O)c1cn(-c2ccc(F)cc2)c2cc(Cl)c(F)cc2c1=O ? 4.05
